src = patent US6525059B1

tested on: human TNF; assay: TNF inhibition: human whole blood assay; type: cell-based; conditions: Homo sapiens, Table 9, human whole blood, LPS; read-out: TNF Inhibition-Human Whole Blood Assay
RECORDED ENDPOINT: pIC50
Numbers only, as −log10 of the molar value.

Reference set, count: 5
# COMPOUND, NUMBER
records = [
    ("CCN(CC)CC(Nc1cc(-c2c[nH]nc2-c2ccc(F)cc2)ccn1)c1ccccc1 (centres unmarked)", 5.28),
    ("Fc1ccc(-c2n[nH]cc2-c2ccnc(NCC3CCNCC3)c2)cc1", 6.31),
    ("CC(C)C[C@@H](CO)Nc1cc(-c2c[nH]nc2-c2ccc(F)cc2)ccn1", 4.60),
    ("CCOC(=O)N1CCN(c2[nH]nc(-c3ccccc3)c2-c2ccncc2)CC1", 4.60),
    ("CCOC(=O)N1CCC(Nc2cc(-c3c[nH]nc3-c3ccc(F)cc3)ccn2)CC1", 5.28),
]

Return reported pIC50 values for all items listed beneath this line.
1. CCN(CC)CCCC(C)Nc1nccc(-c2c[nH]nc2-c2ccc(F)cc2)n1 (centres unmarked)
2. OCC(Nc1cc(-c2c[nH]nc2-c2ccc(F)cc2)ccn1)c1ccccc1 (centres unmarked)
3. CCN(CC)CCCNc1n[nH]c(-c2ccc(F)cc2)c1-c1ccncc1

Reply |
6.54
6.00
6.59

* * *

target: human p38 kinase alpha (Homo sapiens); construct: The coding region of the human p38a cDNA was obtained by PCR-amplification from RNA isolated from the human monocyte cell line THP.1; GST (N); made in house; host or cells: E. coli DH10B; experiment: p38 kinase in vitro assay, phosphorylation of biotinylated PHAS-I with gamma 32P-ATP; assay type: biochemical; conditions: read-out: P38 alpha kinase IC50
Sequence (Q16539 whole entry): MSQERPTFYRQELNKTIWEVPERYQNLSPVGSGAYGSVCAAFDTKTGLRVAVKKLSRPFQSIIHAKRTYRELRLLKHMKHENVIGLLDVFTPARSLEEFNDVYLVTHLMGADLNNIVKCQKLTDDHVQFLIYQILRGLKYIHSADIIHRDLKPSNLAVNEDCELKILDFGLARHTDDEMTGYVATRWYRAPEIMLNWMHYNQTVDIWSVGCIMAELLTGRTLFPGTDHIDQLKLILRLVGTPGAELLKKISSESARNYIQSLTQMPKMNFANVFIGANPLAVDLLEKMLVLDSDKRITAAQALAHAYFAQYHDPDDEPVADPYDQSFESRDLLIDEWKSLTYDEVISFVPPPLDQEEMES
pIC50: −log10 of the molar value. Structures can show the parent of a compound that is named as a salt.
Heads up, the class ranges for pIC50 are 1 = under 6, 2 = from 6 up to 7, 3 = 7 and over

Known results for molecules:
# MOLECULE, ASSIGNED LABEL
records = [
    ("C[C@@H](NC(=O)N[C@H](C)c1[nH]nc(-c2ccc(F)cc2)c1-c1ccncc1)c1ccccc1 [Example B-0414]", 2),
    ("CC(NC(=O)c1cc(F)cc(C(F)(F)F)c1)c1[nH]nc(-c2ccc(F)cc2)c1-c1ccncc1 (stereo not shown)", 1),
    ("CC(NC(=O)Cc1cccs1)c1[nH]nc(-c2ccc(F)cc2)c1-c1ccncc1 (stereo not shown)", 3),
    ("O=S(=O)(NCc1[nH]nc(-c2ccc(F)cc2)c1-c1ccncc1)c1cccc(Cl)c1Cl", 3),
    ("Clc1ccc(-c2n[nH]c(C3CCNCC3)c2-c2ccncc2)cc1 [Example C-74, hydrochloride]", 3),
]

Ask | Which class holds Clc1cccc(-c2n[nH]c(C3CCNCC3)c2-c2ccncc2)c1 ?
Reply | 3

Ask | Which class holds O=C(NCc1[nH]nc(-c2ccc(F)cc2)c1-c1ccncc1)c1cc2ccccc2s1 ?
Reply | 1

Ask | Which class holds CC(NC(=O)c1cccc(C(F)(F)F)c1)c1[nH]nc(-c2ccc(F)cc2)c1-c1ccncc1 (stereo not shown) ?
Reply | 1

Ask | Which class holds CN1CCC(c2[nH]nc(-c3ccc(Cl)cc3)c2-c2ccncc2)CC1 ?
Reply | 3

Ask | Which class holds C[C@@H](NS(=O)(=O)c1cc(Cl)ccc1Cl)c1[nH]nc(-c2ccc(F)cc2)c1-c1ccncc1 ?
Reply | 3

Ask | Which class holds C[C@@H](NS(=O)(=O)c1ccc(F)cc1)c1[nH]nc(-c2ccc(F)cc2)c1-c1ccncc1 ?
Reply | 3

Ask | Which class holds CC(C)N1CCC(c2[nH]nc(-c3ccc(C(F)(F)F)cc3)c2-c2ccncc2)CC1 ?
Reply | 2

Ask | Which class holds Cc1ccc(S(C)(=O)=O)cc1S(=O)(=O)NCc1[nH]nc(-c2ccc(F)cc2)c1-c1ccncc1 ?
Reply | 2

Ask | Which class holds NC(=O)NC(Cc1ccccc1)c1[nH]nc(-c2ccc(F)cc2)c1-c1ccncc1 (stereo not shown) [Example B-0769] ?
Reply | 1

Ask | Which class holds C[C@@H](NS(=O)(=O)c1cccs1)c1[nH]nc(-c2ccc(F)cc2)c1-c1ccncc1 ?
Reply | 3

Ask | Which class holds CC(Oc1ccccc1)C(=O)N[C@H](C)c1[nH]nc(-c2ccc(F)cc2)c1-c1ccncc1 (stereo partly shown) ?
Reply | 2

Ask | Which class holds C[C@@H](NS(=O)(=O)Cc1ccccc1)c1[nH]nc(-c2ccc(F)cc2)c1-c1ccncc1 ?
Reply | 3

Ask | Which class holds CS(=O)(=O)N1CCC(c2[nH]nc(-c3ccc(F)cc3)c2-c2ccncc2)CC1 ?
Reply | 2

Ask | Which class holds COCCN1CCC(c2[nH]nc(-c3ccc(Cl)cc3)c2-c2ccncc2)CC1 ?
Reply | 3

Ask | Which class holds CC(C)(C)C(=O)NC(Cc1ccccc1)c1[nH]nc(-c2ccc(F)cc2)c1-c1ccncc1 (stereo not shown) [Example B-0791] ?
Reply | 2

* * *

System: TNF-α
Assay: Rat assay: LPS-challenged rats, serum TNF-α by ELISA
Type: in vivo
Conditions: Rattus norvegicus, po, Table 10, dose 20.0 mg/kg
Procedure: The efficacy of the novel compounds in blocking the production of TNF also was evaluated using a model based on rats challenged with LPS. Male Harlen Lewis rats [Sprague Dawley Co.] were used in this model. Each rat weighed approximately 300 g and was fasted overnight prior to testing. […] Serum samples were stored at −20° C. until quantitative analysis of TNF-α by Enzyme Linked-Immuno-Sorbent Assay (“ELISA”) [Biosource]. […]
I'd be grateful if you could share measured inhibition in vivo at 20 mg/kg for these entries.
Field note: include the unit after the figure.

# COMPOUND, inhibition in vivo at 20 mg/kg
measured = [
    ("CN1CCC(Sc2[nH]nc(-c3ccc(Cl)cc3)c2-c2ccncc2)CC1 [Example A-468]", "94%"),
]

Return reported inhibition in vivo at 20 mg/kg values for all items listed beneath this line.
1. Clc1ccc(-c2n[nH]c(OC3CCNCC3)c2-c2ccncc2)cc1 [Example A-442]
2. Nc1[nH]nc(-c2ccc(Cl)cc2)c1-c1ccncc1 [Example A-427]
3. [O-][S+](c1[nH]nc(-c2ccc(Cl)cc2)c1-c1ccncc1)C1CCNCC1 (centres unmarked) [Example A-482]

Reply |
1: 92%; 2: 77%; 3: 15%

Ask | Name the recorded inhibition in vivo at 20 mg/kg of Cc1cc(C(=O)C(=C2SCS2)c2ccncc2)ccc1Cl [Example A-391] , assay system TNF-α.
Reply | 53%

* * *

target: human GST-p38 kinase alpha (Homo sapiens, UniProt Q16539); construct: The coding region of the human p38a cDNA was obtained by PCR-amplification from RNA isolated from the human monocyte cell line THP.1; made in house; host or cells: E. coli DH10B; assay: p38 kinase in vitro assay, second format, phosphorylation of EGFRP with 33P-ATP; assay type: biochemical; conditions: Table 9, 10% DMSO; read-out: p38α Kinase Assay IC50
Sequence (Q16539 whole entry): as above
Structures can show the parent of a compound that is named as a salt.
RECORDED ENDPOINT: IC50

# MOLECULE, IC50
measured = [
    ("Fc1ccc(-c2n[nH]c(N3CCC(N4CCCC4)CC3)c2-c2ccncc2)cc1 [Example A-357, trihydrochloride]", "120 nM"),
    ("CC(C)C[C@@H](CO)Nc1cc(-c2c[nH]nc2-c2ccc(F)cc2)ccn1 [Example A-354]", "220 nM"),
]

Next, consider the following molecule.
Ask | Kindly indicate its recorded IC50. Item: C[C@@H](O)CNc1cc(-c2c[nH]nc2-c2ccc(F)cc2)ccn1 [Example A-368]
Reply | 42 nM

* * *

I'd be grateful if you could share measured pIC50 for these entries.
molecular target: human GST-p38 kinase alpha (Homo sapiens); construct: The coding region of the human p38a cDNA was obtained by PCR-amplification from RNA isolated from the human monocyte cell line THP.1; made in house; host or cells: E. coli DH10B; experiment: p38 kinase in vitro assay, second format, phosphorylation of EGFRP with 33P-ATP; type: biochemical; settings: Table 10, 10% DMSO; @ 1.0 hour; read-out: p38α Kinase Assay IC50
Give bare numbers, as −log10 of the molar value.

Return reported pIC50 values for all items listed beneath this line.
1. CCc1ccc(C(=O)C(=C2SCS2)c2ccncc2)cc1 [Example A-404]
2. Sc1[nH]nc(-c2ccc(Cl)cc2)c1-c1ccncc1 [Example A-455]
3. Fc1ccc(-c2n[nH]c(SCC3OCCO3)c2-c2ccncc2)cc1 [Example A-451]

Reply |
1. 5.38
2. 4.89
3. 7.11

* * *

molecular target: human GST-p38 kinase alpha (Homo sapiens, UniProt Q16539); construct: The coding region of the human p38a cDNA was obtained by PCR-amplification from RNA isolated from the human monocyte cell line THP.1; made in house; host or cells: E. coli DH10B; assay: p38 kinase in vitro assay, second format, phosphorylation of EGFRP with 33P-ATP; type: biochemical; details: Table 10, 10% DMSO; @ 1.0 hour; read-out: p38α Kinase Assay IC50
RECORDED ENDPOINT: log10(IC50) (log10 of the value in nM)
Each number you see is log10 of IC50, and the unit inside the log is nM.

Reference set, count: 4
# MOLECULE, NUMBER
records = [
    ("O=C(C(=C1SCS1)c1ccncc1)c1cccc(Br)c1", 3.37),
    ("Cc1ccc(-c2n[nH]c(N3CCN(C)CC3)c2-c2ccncc2)cc1C", 2.32),
    ("CCc1ccc(-c2[nH]nc(N3CCN(C)CC3)c2-c2ccncc2)cc1", 3.12),
    ("C[S+]([O-])c1[nH]nc(-c2ccc(F)cc2)c1-c1ccncc1 (centres unmarked)", 3.45),
]

Next, consider the following molecule.
Ask | Kindly indicate its recorded log10(IC50). Item: COC(=O)CNc1[nH]nc(-c2ccc(Cl)cc2)c1-c1ccncc1
Reply | 4.75
